test: anti-Giardia activity of synthetic compounds – Compounds Australia Scaffold Library subset, 24/48 h, primary screen (AID 1794835); conditions: Giardia lamblia BRIS/91/HEPU/1279 trophozoite counts, imaging, measured here: growth inhibition at 24 h, at 10 µM, stronger effect = higher value;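 further: 0% = parasite counts in DMSO vehicle wells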
Out of some 2,500 compounds screened, about 45 (2%) were called active. Only a selection was taken, and actives are over-represented in it overall.
Would you mind telling me the reported inhibition of each entry?

Data request: Which measured inhibition value corresponds to CCC(OC1CCCC1)C(=O)N1CCN(c2nccn2C)CC1 (centres undefined) ?
Data returned: 9.4%

Data request: Which measured inhibition value corresponds to Cc1ccccc1NC(=O)c1c(C)oc2ncnc(N3CCCCC3)c12 ?
Data returned: 14.5%

Data request: Which measured inhibition value corresponds to COc1cccc(CCC(=O)N2CCCC(c3nnc4n3CCCCC4)C2)c1 (centres undefined) ?
Data returned: 2.1%

Data request: Which measured inhibition value corresponds to CCc1nccn1CC1CCCN1 (centres undefined) ?
Data returned: 0.2%
